Provide the reported growth AUC of each item.
Test system: Bacteroides caccae
Assay: growth AUC relative to DMSO control (median of replicates) (fraction); higher = more growth (less inhibition), active = hit call of the paper
Details: 20 µM; 24 h
// return just the number, without any unit appended

Query: # query: growth AUC | item CN(C)C(=O)NC1CCCCCCC1 | system: Bacteroides caccae
Response: 1.01

Query: Hi! What's the reported growth AUC for C=CCc1ccc(OC)c(OC)c1 on Bacteroides caccae?
Response: 1.04

Query: Query for Bacteroides caccae: what growth AUC does the record show for CCNc1nc(NC(C)(C)C)[nH]c(=O)n1 ?
Response: 0.937

Query: Hi! What's the reported growth AUC for O.O.O=[N+]([O-])c1ccc([O-])cc1.[Na+] on Bacteroides caccae?
Response: 0.999

Query: Notebook entry, Bacteroides caccae assay: growth AUC of COCC(=O)N(c1c(C)cccc1C)C(C)C(=O)O (stereo not drawn) = ?
Response: 0.998

Query: // fetch Bacteroides caccae growth AUC for O=S(=O)(Cc1ccc(Cl)cc1)c1ccc(Cl)cc1
Response: 1

Query: Form field - read-out: growth AUC; system: Bacteroides caccae; submitted item: CCc1nc2ncnn2c(N)c1CCCC(=O)O.Cl
Response: 0.907

Query: What growth AUC appears in the records for this compound with Bacteroides caccae? CC(C)CCCCCCc1ccc(O)cc1
Response: 1.03

Query: Lab request: please report growth AUC under test system Bacteroides caccae for c1cc2ccc3ccc4ccc5cccc6c(c1)c2c3c4c56
Response: 1

Query: Form: Entry = CN(C)C(=O)Nc1ccc(Cl)c(Cl)c1 | System = Bacteroides caccae | growth AUC = ____
Response: 0.995

Query: Lookup: growth AUC / Bacteroides caccae / COC1CCC2(CC1)NC(=O)C(c1cc(C)ccc1C)=C2O (stereo not drawn)
Response: 0.974

Query: Record c1ccc2c(c1)Cc1ccccc1-2 : what is its growth AUC with Bacteroides caccae?
Response: 1.02

Query: Fill in the recorded growth AUC for this compound, with Bacteroides caccae as test system: CCCOC(=O)c1ccc(O)cc1
Response: 0.979
